- TGT: Adrenergic receptor alpha-1 (Rattus norvegicus, UniProt P15823+P23944+P43140)
- PROTOCOL DETAILS: Displacement of [3H]prazosin from Alpha-1 adrenergic receptor of rat cerebral cortex
- Assay type: tissue-based
Each entry below lists one item and its recorded Ki value.
ATTRIBUTE MEASURED: Ki (nM)

> print(dat)
                                   compound  recorded.result
1  COc1ccccc1N1CCN(CCC(=O)NC2CCCc3c(OC)cccc32)CC1 (configuration not stated)              125
2  COc1cc(N)c(Cl)cc1C(=O)NCCN1CCN(c2ccccc2OC)CC1                8
3  COc1cccc(C(=O)CCCCN2CCN(c3ccccc3OC)CC2)c1               41
4  COc1ccccc1N1CCN(CCCNC(=O)C2CCCc3cccc(OC)c32)CC1 (configuration not stated)               70
5  COc1ccccc1N1CCN(CCCC2CCCc3c(OC)cccc32)CC1 (configuration not stated)                1
6  COc1ccccc1N1CCN(CCCCC2CCCc3c(OC)cccc32)CC1 (configuration not stated)               65
7  COc1cccc(C(=O)CCCN2CCN(c3ccccc3OC)CC2)c1               19

Cited source: ChEMBL document CHEMBL1149990
